These entries and their values trace back to patent US10570121B2.

assay_target: WT EZH2 (Homo sapiens (Human), UniProt Q15910)
Sequence (Q15910 whole entry, looked up, one chain of several): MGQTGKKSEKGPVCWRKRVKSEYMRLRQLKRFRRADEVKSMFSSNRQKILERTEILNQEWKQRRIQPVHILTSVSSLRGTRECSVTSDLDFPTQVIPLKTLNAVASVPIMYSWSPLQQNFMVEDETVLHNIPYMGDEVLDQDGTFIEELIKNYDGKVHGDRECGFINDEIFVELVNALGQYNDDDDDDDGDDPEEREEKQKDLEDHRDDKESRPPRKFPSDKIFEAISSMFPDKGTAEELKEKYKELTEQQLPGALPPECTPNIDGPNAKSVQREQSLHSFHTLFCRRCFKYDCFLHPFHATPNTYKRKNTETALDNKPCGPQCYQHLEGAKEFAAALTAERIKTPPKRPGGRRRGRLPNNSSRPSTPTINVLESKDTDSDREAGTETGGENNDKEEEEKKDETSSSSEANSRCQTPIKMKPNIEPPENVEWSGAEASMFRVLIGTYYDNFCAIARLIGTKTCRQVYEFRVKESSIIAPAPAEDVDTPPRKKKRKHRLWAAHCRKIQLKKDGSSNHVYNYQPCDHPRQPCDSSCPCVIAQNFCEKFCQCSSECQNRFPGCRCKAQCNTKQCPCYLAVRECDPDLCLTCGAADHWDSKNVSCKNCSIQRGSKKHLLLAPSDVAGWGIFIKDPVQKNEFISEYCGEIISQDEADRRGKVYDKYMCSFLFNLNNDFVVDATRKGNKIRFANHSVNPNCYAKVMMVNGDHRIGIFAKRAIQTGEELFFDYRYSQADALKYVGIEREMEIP
test_details: WT EZH2 nucleosome assay (10X SAM, high SAM conditions)
Format: biochemical
particulars: 15 uM SAM, Ki app from competitive inhibition fit, read-out: WT EZH2 Nucleosome assay (10X SAM) Ki
The compounds listed here are annotated with their pKi.
Scale for pKi: -log10 of concentration given in mol/L; no unit attached.

Cc1cc(C)c(CN2CCc3c(Cl)cc(C(CO)O[C@@H]4CCOC4)c(Cl)c3C2=O)c(=O)[nH]1 (single isomer, unassigned) [Example 103]: 7.28
COC(c1cc(C)c2c(c1Cl)C(=O)N(Cc1c(C)cc(C)[nH]c1=O)CC2)C1CCN(C2COC2)CC1 (single isomer, unassigned) [Example 155]: 8.89
COc1cc(C)[nH]c(=O)c1CN1CCc2c(Cl)cc(C(OC)C3CCN(C(C)=O)CC3)c(Cl)c2C1=O (single isomer, unassigned) [Example 122]: 7.14
Cc1cc(C)c(CN2CCc3ccc(C(CO)C4CCOC4)c(Cl)c3C2=O)c(=O)[nH]1 (single isomer, unassigned) [Example 98]: 5.91
Cc1cc(C)c(CN2CCc3c(Cl)cc(C(CO)N4CC[C@@H](F)C4)c(Cl)c3C2=O)c(=O)[nH]1 (single isomer, unassigned) [Example 6]: 7.72

We next turn to a different compound, shown below.
input: pKi for COC(c1cc(Cl)c2c(c1Cl)C(=O)N(Cc1c(C)cc(C)[nH]c1=O)CC2)C1CN(C(=O)CO)C1 (single isomer, unassigned) [Example 128] ?
output: 6.74

###

assay_target: EZH2 Mutant Y641N (Homo sapiens (Human), UniProt Q15910, Y641N)
Sequence (Q15910 whole entry Y641N, looked up): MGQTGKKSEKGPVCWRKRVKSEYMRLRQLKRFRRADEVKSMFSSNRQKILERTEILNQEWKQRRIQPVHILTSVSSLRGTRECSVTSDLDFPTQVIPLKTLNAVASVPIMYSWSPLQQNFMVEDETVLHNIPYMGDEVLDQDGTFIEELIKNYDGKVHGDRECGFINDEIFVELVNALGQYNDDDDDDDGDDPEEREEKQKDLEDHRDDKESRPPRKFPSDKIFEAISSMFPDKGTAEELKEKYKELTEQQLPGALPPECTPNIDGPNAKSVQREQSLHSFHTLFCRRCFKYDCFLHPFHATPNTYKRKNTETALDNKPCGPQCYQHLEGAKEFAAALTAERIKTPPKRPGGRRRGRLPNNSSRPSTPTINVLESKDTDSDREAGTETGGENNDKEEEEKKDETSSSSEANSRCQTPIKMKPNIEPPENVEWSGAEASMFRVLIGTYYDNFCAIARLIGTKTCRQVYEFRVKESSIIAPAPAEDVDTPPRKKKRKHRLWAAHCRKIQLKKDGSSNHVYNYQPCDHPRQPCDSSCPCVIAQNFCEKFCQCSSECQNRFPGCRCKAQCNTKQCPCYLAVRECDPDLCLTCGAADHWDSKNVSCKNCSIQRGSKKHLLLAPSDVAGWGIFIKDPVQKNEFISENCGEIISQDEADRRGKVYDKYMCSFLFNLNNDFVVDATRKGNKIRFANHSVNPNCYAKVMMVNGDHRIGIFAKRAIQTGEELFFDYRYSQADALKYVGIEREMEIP
Sequence (O75530 whole entry partner, looked up): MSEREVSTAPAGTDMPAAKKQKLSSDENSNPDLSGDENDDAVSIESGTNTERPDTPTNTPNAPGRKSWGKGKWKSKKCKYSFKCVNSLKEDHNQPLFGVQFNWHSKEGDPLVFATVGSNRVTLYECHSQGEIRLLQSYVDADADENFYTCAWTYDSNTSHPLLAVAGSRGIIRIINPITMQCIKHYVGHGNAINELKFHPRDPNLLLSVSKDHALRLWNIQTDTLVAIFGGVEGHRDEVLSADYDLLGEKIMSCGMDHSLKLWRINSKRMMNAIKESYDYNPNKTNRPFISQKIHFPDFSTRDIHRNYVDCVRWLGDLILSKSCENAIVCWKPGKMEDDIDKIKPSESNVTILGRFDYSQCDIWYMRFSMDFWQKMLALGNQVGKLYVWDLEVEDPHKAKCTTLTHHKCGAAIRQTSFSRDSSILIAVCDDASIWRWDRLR
Sequence (Q15022 whole entry partner, looked up): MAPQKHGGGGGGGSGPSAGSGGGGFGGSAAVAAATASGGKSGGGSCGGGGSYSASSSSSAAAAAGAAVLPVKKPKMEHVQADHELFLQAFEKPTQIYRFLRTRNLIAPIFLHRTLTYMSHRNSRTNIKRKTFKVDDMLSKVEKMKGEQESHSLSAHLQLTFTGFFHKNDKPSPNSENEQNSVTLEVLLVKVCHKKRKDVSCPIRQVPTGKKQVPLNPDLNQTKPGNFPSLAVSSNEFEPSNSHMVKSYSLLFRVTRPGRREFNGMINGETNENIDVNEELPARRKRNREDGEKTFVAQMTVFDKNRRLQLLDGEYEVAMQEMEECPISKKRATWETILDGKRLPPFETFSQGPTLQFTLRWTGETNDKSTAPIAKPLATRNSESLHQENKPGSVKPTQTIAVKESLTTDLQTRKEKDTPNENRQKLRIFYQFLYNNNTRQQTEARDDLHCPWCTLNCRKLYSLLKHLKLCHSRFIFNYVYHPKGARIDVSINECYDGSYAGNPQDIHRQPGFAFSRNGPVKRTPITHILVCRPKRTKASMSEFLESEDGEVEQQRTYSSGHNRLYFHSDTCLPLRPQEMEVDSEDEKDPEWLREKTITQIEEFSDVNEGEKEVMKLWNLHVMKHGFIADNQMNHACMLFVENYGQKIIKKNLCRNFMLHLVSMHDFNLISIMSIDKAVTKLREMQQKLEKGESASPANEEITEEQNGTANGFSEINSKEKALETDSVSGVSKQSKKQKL
Sequence (Q09028 whole entry partner, looked up): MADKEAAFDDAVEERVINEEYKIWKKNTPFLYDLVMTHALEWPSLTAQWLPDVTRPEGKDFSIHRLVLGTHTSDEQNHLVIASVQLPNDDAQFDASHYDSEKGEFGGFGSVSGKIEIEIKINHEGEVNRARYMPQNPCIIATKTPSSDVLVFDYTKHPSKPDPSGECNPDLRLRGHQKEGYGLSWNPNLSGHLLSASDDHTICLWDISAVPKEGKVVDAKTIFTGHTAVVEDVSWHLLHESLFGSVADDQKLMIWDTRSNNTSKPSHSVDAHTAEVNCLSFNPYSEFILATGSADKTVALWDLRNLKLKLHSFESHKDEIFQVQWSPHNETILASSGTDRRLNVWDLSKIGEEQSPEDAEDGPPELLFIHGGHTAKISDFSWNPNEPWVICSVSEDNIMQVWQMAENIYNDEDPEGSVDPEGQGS
test_details: EZH2 Mutant Y641N nucleosome assay
Format: biochemical
particulars: PRC2 4-protein complex 6 nM, 1.5 μM SAM, HeLa oligonucleosomes; read-out: EZH2 Mutant Y641N Nucleosome assay IC50
pIC50: −log10 of the molar value.
Returns True if the recorded pIC50 is greater than or equal to 7, and False otherwise.

Illustrative cases are given below, each with its answer.
COC(c1cc(Cl)c2c(c1Cl)C(=O)N(Cc1c(C)cc(C)[nH]c1=O)CC2)[C@@H](C)CO (single isomer, unassigned) [Example 143]: False
Cc1cc(C)c(CN2CCc3c(Cl)cc(C(C)C4CN(C(=O)CO)C4)c(Cl)c3C2=O)c(=O)[nH]1 (single isomer, unassigned) [Example 183]: False
COC(c1cc(Cl)c2c(c1Cl)C(=O)N(Cc1c(C)cc(C)[nH]c1=O)CC2)C1CN(C(=O)[C@H](C)O)C1 (single isomer, unassigned) [Example 173]: False
COC(c1cc(Br)c2c(c1Cl)C(=O)N(Cc1c(C)cc(C)[nH]c1=O)CC2)C1CCN(C)CC1 (single isomer, unassigned) [Example 147]: False
COc1cc(C)[nH]c(=O)c1CN1CCc2c(Cl)cc(C(C)C3CCN(C(=O)CO)CC3)c(Cl)c2C1=O (single isomer, unassigned) [Example 200]: True

Attention now shifts to the item below.
input: Reported pIC50 at or above 7? Cc1cc(C)c(CN2CCc3c(Cl)cc([C@H](CO)[C@H]4CCCO4)c(Cl)c3C2=O)c(=O)[nH]1 [Example 13]
output: True

###

assay_target: WT EZH2 (Homo sapiens (Human), UniProt Q15910)
test_details: WT EZH2 nucleosome assay (10X SAM, high SAM conditions)
Assay type: biochemical
particulars: WT EZH2 Nucleosome assay (10X SAM) Ki (μM), 15 uM SAM, Ki app from competitive inhibition fit
measurement_kind: Ki
Write down the value, and be sure its unit follows.

COC(c1cc(Cl)c2c(c1Cl)C(=O)N(Cc1c(C)cc(C)[nH]c1=O)CC2)C1CCN(C2COC2)CC1 (single isomer, unassigned): 0.375 µM
COc1cc(C)[nH]c(=O)c1CN1CCc2c(Cl)cc(C(OC)C3CCOC3)c(Cl)c2C1=O (single isomer, unassigned) [Example 125]: 0.0009 µM
COc1cc(C)[nH]c(=O)c1CN1CCc2c(Cl)cc(C(OC)C3CCOC3)c(Cl)c2C1=O (single isomer, unassigned) [Example 124]: 0.058 µM
COc1cc(C)[nH]c(=O)c1CN1CCc2c(Cl)cc(C(OC)C3CCOC3)c(Cl)c2C1=O (single isomer, unassigned) [Example 126]: 0.056 µM
CCC(OC)c1cc(Cl)c2c(c1Cl)C(=O)N(Cc1c(C)cc(C)[nH]c1=O)CC2 (single isomer, unassigned) [Example 16]: 0.004 µM

input: Ki for [2H]C([2H])([2H])OC(c1cc(Cl)c2c(c1Cl)C(=O)N(Cc1c(C)cc(C)[nH]c1=O)CC2)C1CCN(C(=O)CO)CC1 (single isomer, unassigned) ?
output: 0.2 µM

input: Note, next up: CCC(OC)c1cc(Cl)c2c(c1Cl)C(=O)N(Cc1c(C)cc(C)[nH]c1=O)CC2 (single isomer, unassigned) [Example 15]
output: 0.003 µM

input: Note, next up: COC(c1cc(Cl)c2c(c1Cl)C(=O)N(Cc1c(C)cc(C)[nH]c1=O)CC2)C1CCN(C)CC1 (single isomer, unassigned) [Example 137]
output: 0.133 µM

input: Note, next up: COC(c1cc(Cl)c2c(c1Cl)C(=O)N(Cc1c(C)cc(C)[nH]c1=O)CC2)C1CCN(C)CC1 (single isomer, unassigned) [Example 136]
output: 0.0001 µM

input: Note, next up: COC(c1cc(Cl)c2c(c1Cl)C(=O)N(Cc1c(C)cc(C)[nH]c1=O)CC2)C1CCN(C(=O)CO)CC1 (single isomer, unassigned)
output: 0.136 µM

input: Note, next up: COc1cc(C)[nH]c(=O)c1CN1CCc2c(Cl)cc(C(OC)C3CCOC3)c(Cl)c2C1=O (single isomer, unassigned) [Example 127]
output: 0.0002 µM

input: Note, next up: CCOC(c1cc(Cl)c2c(c1Cl)C(=O)N(Cc1c(C)cc(C)[nH]c1=O)CC2)C1CS(=O)(=O)C1 (single isomer, unassigned)
output: 0.578 µM
